Origin of values: the supplement of paper PMC12764529

List of folding stability dG unfold values.
Test: folding stability dG unfold from trypsin proteolysis; higher = more stable
quantity.kind: folding stability dG unfold

>>> reported("SAGGSAGGSKVEVKEFEFKANGSKALIEKLEDGSVKIIVLGEEPKEYEISPEEPIVILPGFEVSAGGSAGGS [r12_1003_TrMRF]")
"-0.341 kcal/mol"
>>> reported("SAGGMDVKVEVKEVELPEAKVTITKITTPDGSTSTITYDPETGTADVTTTTPTSTTTTTLPKSEIKPLSAGG [r13_328_JUSTAS]")
"0.846 kcal/mol"
>>> reported("SAGGSAGGSAGSNKVVTFVPRDPATGAPLGERPIPINSSSGSEIESIKKELPPEVVEIVESAGGSAGGSAGG [r17_339_JUSTAS]")
"0.605 kcal/mol"
>>> reported("SAGGDNFKIEIQFFPDGHIFILIKWPNGDWILIPVPIEYPVPKRDPDGEVKEPGPVTHTHLFLIPANDSAGG [r13_236_TrROS]")
"1.88 kcal/mol"
